system: MS2 coat protein; assay: apparent KD of MS2 coat protein; designed switch direction (-1 OFF switch, 1 ON switch): 1; higher = weaker reporter binding; conditions: input ligand: FMN 200 uM
Classification field: rule met = apparent KD of MS2 coat protein at or over 100 nM; rule not met = apparent KD of MS2 coat protein under 100 nM.

# bool: apparent KD of MS2 coat protein of GGAGCCAAGGCAGGAUAUUCAAAACAUGAGGAUCACCCAUGUGGGUAAAAGGCCAGAAGGCCUUGGGAGAAGGGCCAUGGCUCG [Xeonanis - 13 mod12] (Eterna round: R96, puzzle: Same State NG 2) >= 100 nM
rule not met

# bool: apparent KD of MS2 coat protein of UGGCUCAGAGCAGGAUAUACGUGGUCACAUGAGGAUCACCCAUGUCUCGAGCUUCGGCUCGAGGCGUAGAAGGGCUCUGAGCCU [SSNG2/6-B3] (Eterna round: R96, puzzle: Same State NG 2) >= 100 nM
rule met

# bool: apparent KD of MS2 coat protein of UUGAAGAAUUAAGGAUAUCGAGUCGUCUAAUUAAACAUGAGGAUCACCCAUGUGGGUUGUGGUAUCGAGAAGGUAAAUUACUAA [JR_SSNG2_Sub099] (Eterna round: R96, puzzle: Same State NG 2) >= 100 nM
rule not met

# bool: apparent KD of MS2 coat protein of UAGGCUGGUACAGGAUAUGCCGUAUUUUAGUCGGCAGAAGGGUGCUCACAUGAGGAUCACCCAUGUAUACAGCCAGAUCAUGUU [MOD JMF Solution 2] (Eterna round: R96, puzzle: Same State NG 1) >= 100 nM
rule met

###

system: MS2 coat protein; test: apparent KD of MS2 coat protein; higher = weaker reporter binding; settings: Eterna round: R107; input ligand: tryptophan 2.4 mM
Classification field: Criterion met = apparent KD of MS2 coat protein at or over 50 nM; Criterion not met = apparent KD of MS2 coat protein under 50 nM.

# bool: apparent KD of MS2 coat protein of UGAUGGUGCGGAAGGAGCGUGUAAGAACAAGAACAUGAGGAUCACCCAUGUAUUAAUUUAACACAGGUAGGUCGCCGUGUUAUUG [11.K] >= 50 nM
Criterion not met

# bool: apparent KD of MS2 coat protein of GCUGCCAUACGAAGGAGCGCUGCUGCGAUGUGGCGAACAUGAGGAUCACCCAUGUGGCAGCGGCAGGUAGGUCGCGUAUGGCAGC [#02 Exclusion - Arginine B] >= 50 nM
Criterion met

# bool: apparent KD of MS2 coat protein of UGUUUGGUGCGCGAGUGUUGGAUAAUUGAUACCAGUGUAGAAGUGCGCCCUUGGCAGCGAAUCCUAACAUGAGGAUCACCCAUGU [5.X] >= 50 nM
Criterion not met

# bool: apparent KD of MS2 coat protein of UAUCGUCAGACGGCCGCCACUAGAACAUGAGGAUCACCCAUGUAGGCGGCCGAUUCCUCAUGAACUAGGACCGGGUCUGACGAAU [(Trp1)-(Ms2)-(T)'-(M)'-(Trp2)_Design12] >= 50 nM
Criterion not met

# bool: apparent KD of MS2 coat protein of ACAUGAGGAUCACCCAUGUGCCGAGUUGAUACCAGACCCGCACUAGUCCCUUGGCAGCAACUACGUGUGGGACACCCAUGUUAAG [qaqmullin] >= 50 nM
Criterion not met

# bool: apparent KD of MS2 coat protein of AUUUUCAUGGUCAUAUAUAUAUCUUCAGAUACCAGACUAUAUUAAGUCCCUUGGCAGCUGUUACAUGAGGAUCACCCAUGUUAUA [JR_ExcTheophyA_Sub013] >= 50 nM
Criterion met

###

tested on: MS2 coat protein; assay: apparent KD of MS2 coat protein, switch ON state; designed switch direction (-1 OFF switch, 1 ON switch): -1; higher = weaker reporter binding; conditions: FMN input: 0 or 200 uM; Eterna round: R93 (includes R88 designs)
reportedEndpoint: apparent KD of MS2 coat protein (nM)
All answers are understood in nM, so give the number only.

Sure, the documented apparent KD of MS2 coat protein for AAGAAGGUAGGAUAUACUAAAGAAAUAAAAAUAAAUAAAGAACAUGAGGAUCACCCAUGUAGAAGGGCCAAGAA [Merkheperre] is 54.4

Sure, the documented apparent KD of MS2 coat protein for GGAUGUGAAGGAUAUACAUGAGGAUCACCCAUGUGAGAGAAAAAAGUGAGAAAGAAAAGUAGAAGGUCGUGUCG [salish99-ex3-86] is 34.9

Sure, the documented apparent KD of MS2 coat protein for GAAAAGGCAGGAUAUGCAAGGAUAUAGAAGGAAAAAAAAAAACAUGAGGAUCACCCAUGUAGAAGGGCCAAAAG [salish99-ex2-10] is 57.2

Sure, the documented apparent KD of MS2 coat protein for AAAAAGUGAGGAUAUGUCAAAGGUCACGAAAGUGACAAAGGACAGAAGGCACAUGAGGAUCACCCAUGUAAAAA [Fiskers Exclusion 4D1 65% - Early G segment 1] is 37.4

Sure, the documented apparent KD of MS2 coat protein for ACAAAGUGAGGAUAUGCUAUCGUACAAUAUAGUUAUCGUAUGCAGAAGGCACAUGAGGAUCACCCAUGUAAGAA [Ex 4 Tesla 9] is 40.7

Sure, the documented apparent KD of MS2 coat protein for AAAAAUCGAGGAUAUACAUGAGGAUCACCCAUGUCAAAAAAUGACUACACAAAAGAAAGUAGAAGGCGAUAAAA [Ex 3 May 17] is 28.5

Sure, the documented apparent KD of MS2 coat protein for AAGAACAGAGGAUAUACAUGAGGAUCACCCAUGUAAAAGAAAGAAAAGGGAAAGAAAAGUAGAAGGCUGAAGAA [Ankhkheperure Smenkhkare] is 22.9

Sure, the documented apparent KD of MS2 coat protein for CGUCCACAUGAGGAUCACCCAUGUUAGGAUAUCUAUACUAAAUACAAAACCCAAGUCAAGAGAAGGAGCAGGGC [Teteeresve] is 13.9

Sure, the documented apparent KD of MS2 coat protein for AAAGAUGCAGGAUAUACAUGAGGAUCACCCAUGUUAGACCAGAAAUGGGAAAAAGAAAGUAGAAGGGCAUAAAA [Ex 3 May 33] is 18.2

Sure, the documented apparent KD of MS2 coat protein for CUCUAGUGAGGAUAUCCAAGAAAAGAAGAGAAAGAAAAGAAGGAGAAGGCACAUGAGGAUCACCCAUGUAAGAA [EteRNA is fun!] is 44.1

Sure, the documented apparent KD of MS2 coat protein for CUCAUGUCAGGAUAUCAGUAGUAAAAAAAUAAAAUUACUACUGAGAAGGGACAUGAGGAUCACCCAUGUCAAAA [EX4 363: Super Stable 63] is 20.7

Sure, the documented apparent KD of MS2 coat protein for AAAAAGUGAGGAUAUACGUUGAAAAAAAAAAAAAAAAAGGCGUAGAAGGCACAUGAGGAUCACCCAUGUAAAAA [Ex4 Malc#5] is 56

Sure, the documented apparent KD of MS2 coat protein for AAGAAGUAAGGAUAUCGGAGAGAACAAGAAAGUGAAGAAUACGAGAAGGUACAUGAGGAUCACCCAUGUAAAGA [EXC - 4] is 26.9

###

tested on: MS2 coat protein; assay: apparent KD of MS2 coat protein; designed switch direction (-1 OFF switch, 1 ON switch): -1; higher = weaker reporter binding; settings: Eterna round: R95; input ligand: microRNA oligo, concentration not stated
Classification field: Criterion met = apparent KD of MS2 coat protein at or over 200 nM; Criterion not met = apparent KD of MS2 coat protein under 200 nM.

# bool: apparent KD of MS2 coat protein of AAUAACAAGCAGAUCCUAAACAUGAGGAUCACCCAUGUGCUCGUCUUGUAAAGUACUAUCACGAAAGUGAUAGUACA [Sensor 3, v1 - 59] (puzzle: Sensor v3, turn-off variant 1) >= 200 nM
Criterion not met

# bool: apparent KD of MS2 coat protein of UAGAAUCGAGGAUAUACAUGAGGAUCACCCAUGUGUGGCCACUUGGUGUGGUCGUCAGGUAGAAGGCGAUUACA [Exclusion 3 - Mod of Jieux's Gilly Gone Silly 23 v.4] (puzzle: Exclusion 3) >= 200 nM
Criterion not met

# bool: apparent KD of MS2 coat protein of UAGUGGGUACGAAGGAGUAGUUUGAGCGUACGUUCUGUAACAUGAGGAUCACCCAUGUAGCUUUUUGCUCGACUUAU [JR_SV3TOV2_Sub037] (puzzle: Sensor v3, turn-off variant 2) >= 200 nM
Criterion not met

# bool: apparent KD of MS2 coat protein of AGUAGAUCUACGCUUGCGUGGAUCUGCAAGGCAGGUGUUACAUGAGGAUCACCCAUGUCCUCAUUUGCUCGUCUUAG [JL turnoff v2 99.07] (puzzle: Sensor v3, turn-off variant 2) >= 200 nM
Criterion met
